target: human ether-à-go-go-related gene (hERG) potassium channel (human, UniProt Q12809); assay: primary screen, population patch clamp on CHO cells stably expressing hERG; higher = less effect of the substance;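 note: peak tail current of the secondary pulse compared with the same well before compound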
Sequence (Q12809 whole entry, looked up): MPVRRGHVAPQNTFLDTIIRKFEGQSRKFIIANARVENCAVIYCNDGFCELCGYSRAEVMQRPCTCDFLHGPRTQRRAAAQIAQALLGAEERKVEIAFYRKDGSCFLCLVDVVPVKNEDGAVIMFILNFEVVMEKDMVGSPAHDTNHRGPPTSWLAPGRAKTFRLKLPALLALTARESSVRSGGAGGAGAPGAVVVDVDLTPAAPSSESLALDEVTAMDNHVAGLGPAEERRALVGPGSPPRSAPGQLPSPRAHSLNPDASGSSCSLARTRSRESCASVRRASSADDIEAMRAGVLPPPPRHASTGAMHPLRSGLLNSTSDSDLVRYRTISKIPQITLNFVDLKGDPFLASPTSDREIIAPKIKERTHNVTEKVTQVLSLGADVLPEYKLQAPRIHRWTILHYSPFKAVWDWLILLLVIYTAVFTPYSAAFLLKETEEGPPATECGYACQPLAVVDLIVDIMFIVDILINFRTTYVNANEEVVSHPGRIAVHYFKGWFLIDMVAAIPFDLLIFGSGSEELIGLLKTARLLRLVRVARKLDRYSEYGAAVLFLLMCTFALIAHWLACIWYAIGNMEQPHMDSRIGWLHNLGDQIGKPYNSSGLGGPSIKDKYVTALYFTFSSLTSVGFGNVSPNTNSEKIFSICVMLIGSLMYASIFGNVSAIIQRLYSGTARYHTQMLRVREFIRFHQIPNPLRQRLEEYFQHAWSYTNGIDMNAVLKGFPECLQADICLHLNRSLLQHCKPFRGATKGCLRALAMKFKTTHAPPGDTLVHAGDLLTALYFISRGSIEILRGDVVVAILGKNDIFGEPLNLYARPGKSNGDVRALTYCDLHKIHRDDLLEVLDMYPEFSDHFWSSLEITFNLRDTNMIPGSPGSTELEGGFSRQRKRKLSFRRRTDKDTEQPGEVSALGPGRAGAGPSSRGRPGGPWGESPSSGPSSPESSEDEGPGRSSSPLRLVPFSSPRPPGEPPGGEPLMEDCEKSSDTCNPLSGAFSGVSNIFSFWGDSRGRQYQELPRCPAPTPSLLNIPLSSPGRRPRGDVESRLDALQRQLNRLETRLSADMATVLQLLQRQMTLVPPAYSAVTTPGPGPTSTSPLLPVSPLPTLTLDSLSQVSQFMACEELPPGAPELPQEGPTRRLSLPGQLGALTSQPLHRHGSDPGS
Hit rate of the full screen: of about 310,000 compounds, about 14,000 (4.5%) showed an effect of 50% or more. Effects have a minus sign here. The list comes from a sample in which strong results are over-represented; it also holds close analogues and randomly drawn compounds.
Reported hERG current change (%, negative = inhibition) at 10uM is given for each of the following compounds.
Give the number; % is assumed, so skip it.

Some entries whose results are on file:
Short answer on human ether-à-go-go-related gene (hERG) potassium channel (human, UniProt Q12809) for "NC(=O)c1ccsc1NC(=O)COC(=O)c1ccc(Cl)cc1" , hERG current change (%, negative = inhibition) at 10uM: -5.38

human ether-à-go-go-related gene (hERG) potassium channel (human, UniProt Q12809) hERG current change (%, negative = inhibition) at 10uM of "Cc1ccc(S(=O)(=O)Nc2ccccc2C(=O)N2CCN(C)CC2)cc1" is -3.2

Entry "COC(=O)c1nnn(-c2ccccc2)c1N" , tested on human ether-à-go-go-related gene (hERG) potassium channel (human, UniProt Q12809), has a reported hERG current change (%, negative = inhibition) at 10uM of -7.91

GET /values?item= "COCCn1c(Br)nc2c1c(=O)n(C)c(=O)n2C" &system= human ether-à-go-go-related gene (hERG) potassium channel (human, UniProt Q12809) returns hERG current change (%, negative = inhibition) at 10uM: 8.14

New cases:
Summary line: "O=C(c1ccccc1)c1ccc(N=Nc2c(O)[nH]c(=O)[nH]c2=O)cc1" , human ether-à-go-go-related gene (hERG) potassium channel (human, UniProt Q12809), reported hERG current change (%, negative = inhibition) at 10uM = 1.15

"COc1cc(/C=N/NC(=O)Cc2ccccc2)cc([N+](=O)[O-])c1O" on human ether-à-go-go-related gene (hERG) potassium channel (human, UniProt Q12809) gives hERG current change (%, negative = inhibition) at 10uM = 10

###

biological target: human ether-à-go-go-related gene (hERG) potassium channel (human, UniProt Q12809); experiment: primary screen, population patch clamp on CHO cells stably expressing hERG; higher = less effect of the substance;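 note: peak tail current of the secondary pulse compared with the same well before compound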
Among all 310,000 compounds or so, about 14,000 (4.5%) showed an effect of 50% or more. The effect is printed as a negative number. Only a selection was taken, and strong results are over-represented in it overall.
measure: hERG current change (%, negative = inhibition) at 10uM (%)
Unit % implied. Number only.

Example entries begin here.
Record Cc1cccn2c(CNCC3OCCc4ccccc43)c(C(=O)N3CCCCC3)nc12 (centres unmarked) , field hERG current change (%, negative = inhibition) at 10uM: -19.5

For "Cc1onc(-c2ccccc2Cl)c1C(=O)Nc1cccc(-c2nc3ncccn3c2C)c1" the molecule record lists hERG current change (%, negative = inhibition) at 10uM as -63

The reported value for "Cc1onc(-c2ccccc2Cl)c1C(=O)Nc1cccc(-c2cn3cccnc3n2)c1" in terms of hERG current change (%, negative = inhibition) at 10uM is -24.8

The recorded hERG current change (%, negative = inhibition) at 10uM for entry Cc1ccn2c(CNCC3OCCc4ccccc43)c(C(=O)N3CCCCCC3)nc2c1 (centres unmarked) equals -62.9

// CN1Cc2ccccc2CC1CNCc1c(C(=O)N2CCCC2)nc2ccccn12 (centres unmarked) : hERG current change (%, negative = inhibition) at 10uM value = -73.5

Quick note, hERG current change (%, negative = inhibition) at 10uM for "CCn1nc(C(=O)NNC(=O)COc2ccccc2C)c2ccccc2c1=O" landed at -16

Further cases:
Noted for "CC1CCN(C(=O)c2ccc3c(c2)NC(=O)CN3)CC1" : its hERG current change (%, negative = inhibition) at 10uM reads 8.49

The molecule listed as "CCCn1nc(C(=O)NNC(=O)CCOc2ccccc2OCC)c2ccccc2c1=O" has a reported hERG current change (%, negative = inhibition) at 10uM of -21.8

"Cc1c(NC(=O)CSc2nnnn2-c2ccc(F)cc2)c(=O)n(-c2ccccc2)n1C" yielded hERG current change (%, negative = inhibition) at 10uM of -2.74

Input COc1ccc(-c2nsc3c(N4CCCCC4C)ncnc23)cc1 (centres unmarked) . Output hERG current change (%, negative = inhibition) at 10uM: 33.3

Just so you know, measured hERG current change (%, negative = inhibition) at 10uM for "CCn1nc(C(=O)NNC(=O)CCOc2cc(C)ccc2C)c2ccccc2c1=O" came out at -77.6

Noted for "O=c1c2ccccc2nc(/C=C/c2ccccc2)n1CCCO" : its hERG current change (%, negative = inhibition) at 10uM reads -8.23

get_value(item= CCOC(=O)C1=C(c2ccccc2)NC(=S)NC1c1ccc(Cl)cc1 (centres unmarked) , readout=hERG current change (%, negative = inhibition) at 10uM) returns 0.162

###

The reader will find reported hERG current change (%, negative = inhibition) at 10uM values listed item by item below.
Target: human ether-à-go-go-related gene (hERG) potassium channel (human, UniProt Q12809);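 note: peak tail current of the secondary pulse compared with the same well before compound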
Assay: primary screen, population patch clamp on CHO cells stably expressing hERG; higher = less effect of the substance
Description: Briefly, Chinese hamster ovary (CHO) cells stably expressing the hERG channel were dislodged from tissue culture flasks and dispensed into PPC plates. […] During the recording, background leak currents were estimated by a 100 ms step to -80 mV from an initial holding potential of -70 mV and subtracted from the subsequent current measurement. The campaign was conducted in two phases using slight differences in recording protocol. […]
In all, about 310,000 compounds went through this assay and about 14,000 (4.5%) showed an effect of 50% or more. The effect is printed as a negative number. The sample holds strong results, similar compounds and a random draw of the others, so the mix is not that of the screen.
Entry rule: numbers only, all in %.

Consider the following illustrative entries.
Field hERG current change (%, negative = inhibition) at 10uM (entry "O=C(Nc1ccnn1C1CCN(Cc2ccc(O)c(Cl)c2)CC1)C1CCCC1" ) reads -33

"COc1cccc(-n2nc(C(=O)O)c3ccccc3c2=O)c1" has a reported hERG current change (%, negative = inhibition) at 10uM of 6.72

compound CSc1ccc(CN2CCC(n3nccc3NC(=O)C3CCOC3)CC2)cc1 (centres unmarked) , hERG current change (%, negative = inhibition) at 10uM observed: -67.8

According to the records, this compound "CCOC(=O)C1CCN(C(=O)c2ccc(OCC(=O)Nc3ccc(OCC)cc3)c(OC)c2)CC1" displays hERG current change (%, negative = inhibition) at 10uM of -19.5

"O=C(Nc1ccnn1C1CCN(C(=O)c2ccc(Cl)cc2)CC1)C1CC1" yielded hERG current change (%, negative = inhibition) at 10uM of -24.2

Documented hERG current change (%, negative = inhibition) at 10uM of "CCCCN(CC)CCNC(=O)c1cn(-c2ccc(Cl)cc2)c(=O)c2ccccc12" : -77.7

Recorded result, "O=C(Nc1ccnn1C1CCN(Cc2ccc(Cl)cc2)CC1)C1CCCC1" , hERG current change (%, negative = inhibition) at 10uM: -63.6

compound "O=C(CN(c1ccccc1)S(=O)(=O)c1ccccc1[N+](=O)[O-])Nc1cccnc1" , hERG current change (%, negative = inhibition) at 10uM observed: -21.1

Memo: "Cn1nc(-c2ccc(N3CCCCC3)c(NC(=O)c3ccco3)c2)c2ccccc2c1=O" , reported hERG current change (%, negative = inhibition) at 10uM: 9.65

Form field hERG current change (%, negative = inhibition) at 10uM, entry "CCOCCn1c(CN2CCN(c3ccc(OC)cc3)CC2)nc2c1c(=O)n(C)c(=O)n2C" : -41.2

We next turn to a different compound, shown below.
compound "CCN(CC)CCCNC(=O)CNC(=O)c1nn(-c2ccc(OC)cc2)c(=O)c2ccccc12" , hERG current change (%, negative = inhibition) at 10uM observed: 23.8

###

The following compounds are listed with their measured hERG current change (%, negative = inhibition) at 10uM values.
molecular target: human ether-à-go-go-related gene (hERG) potassium channel (human, UniProt Q12809); experiment: primary screen, population patch clamp on CHO cells stably expressing hERG; higher = less effect of the substance;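 note: peak tail current of the secondary pulse compared with the same well before compound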
In all, about 310,000 compounds went through this assay and about 14,000 (4.5%) showed an effect of 50% or more. Effects have a minus sign here. The sample holds strong results, similar compounds and a random draw of the others, so the mix is not that of the screen.
Respond with the bare value in %.

Field hERG current change (%, negative = inhibition) at 10uM (system: human ether-à-go-go-related gene (hERG) potassium channel (human, UniProt Q12809)) for entry "Cc1[nH]n(-c2ccccc2)c(=O)c1C=Nc1cnc2ccccc2c1" = -8.67

The value of hERG current change (%, negative = inhibition) at 10uM recorded for "Cc1ccccc1N1CCN(C(=S)c2ccc(-c3ccc([N+](=O)[O-])cc3)o2)CC1" when tested on human ether-à-go-go-related gene (hERG) potassium channel (human, UniProt Q12809) reads 20.2

The compound "COc1cccc(S(=O)(=O)N2CCN(Cc3ccc4c(c3)OCO4)CC2)c1" , tested on human ether-à-go-go-related gene (hERG) potassium channel (human, UniProt Q12809), showed hERG current change (%, negative = inhibition) at 10uM of -24.4

Noted hERG current change (%, negative = inhibition) at 10uM for "O=C(c1ccc(-c2ccc([N+](=O)[O-])cc2)o1)N1CCN(S(=O)(=O)c2cccs2)CC1" , tested on human ether-à-go-go-related gene (hERG) potassium channel (human, UniProt Q12809): -27.3

Assay human ether-à-go-go-related gene (hERG) potassium channel (human, UniProt Q12809), sample "CC1CCN(C(=O)c2ccc([N+](=O)[O-])o2)CC1" , hERG current change (%, negative = inhibition) at 10uM read: 4.53

# lookup: "O=C(c1ccc(-c2ccc([N+](=O)[O-])cc2)o1)N1CCCCC1" on human ether-à-go-go-related gene (hERG) potassium channel (human, UniProt Q12809), hERG current change (%, negative = inhibition) at 10uM = -58.4

Record for CC1CCC(NCCNC(=O)c2ccco2)CC1 (stereo not shown) under target or system human ether-à-go-go-related gene (hERG) potassium channel (human, UniProt Q12809): hERG current change (%, negative = inhibition) at 10uM reported as 11.8

Entry O=C(c1ccc(-c2ccc([N+](=O)[O-])cc2)o1)N1CCCC(C(F)(F)F)C1 (stereo not shown) , human ether-à-go-go-related gene (hERG) potassium channel (human, UniProt Q12809) data, hERG current change (%, negative = inhibition) at 10uM value: -17

Others:
Entry "CCCN1CCN(C(=O)c2ccc(-c3ccc([N+](=O)[O-])cc3)o2)CC1" under human ether-à-go-go-related gene (hERG) potassium channel (human, UniProt Q12809) had hERG current change (%, negative = inhibition) at 10uM of -78.1

Assay human ether-à-go-go-related gene (hERG) potassium channel (human, UniProt Q12809), sample CC1CC(C)CN(C(=O)c2ccc(-c3ccc([N+](=O)[O-])cc3)o2)C1 (stereo not shown) , hERG current change (%, negative = inhibition) at 10uM read: -69.1
